metric.name: melting point

Known melting point results, listed for orientation:
> print(dat)
                                   molecule  experimental.result
1  CC(=O)N=C1C(OC(C)=O)=C(NC(C)=O)C2CC(=O)CC1C2NC(C)=O (stereo unspecified)        174 to 176 °C
2  COc1ccc(Nc2nc(-c3ccccc3)cc(N3CCC(O)CC3)n2)cc1Cl        220 to 240 °C
3     CC1(C)OC(=O)Nc2ccc(-c3cccc(Br)c3)cc21        174 to 175 °C

Provide melting point for all items below, preserving their order.
1. O=C1c2c(Cl)cccc2-n2cnc(/C=C\Cl)c2[C@@H]2CCN12
2. [N-]=[N+]=NCCOc1cc(Cl)cc([N+](=O)[O-])c1N
3. CC(C)(C)NS(=O)(=O)c1ccc(Cl)cc1C=C1CCOC1=O

1: 189 to 191 °C; 2: 113 to 114 °C; 3: 198 to 201 °C

----------
I'd appreciate it if you could supply melting point values for the items below.

> print(dat)
                                   compound  experimental.result
1  CCCCCC(=O)SC1CCN(C(C(=O)C2CC2)c2ccccc2F)CC1 (configuration not stated)          64 to 65 °C
2  COC(=O)CC(C)(C)C(=O)c1ccc2c(c1)CC(N1C(=O)c3ccccc3C1=O)C2 (configuration not stated)        115 to 117 °C
3  CCCc1nc(NS(=O)(=O)c2ccc(C(C)(C)C)cc2)c(-c2ccc(C)cc2)c(OCCOc2ncc(-c3cccs3)cn2)n1        165 to 166 °C
4  CCOC(=O)C1=C(N2CCCC2)N=C(C)C(C(=O)OCC)C1c1cccc2ccccc12 (configuration not stated)               121 °C
5  CCCCNC(=O)OCCCc1ccc(OCCOC)cc1Oc1ncc(C(F)(F)F)cc1Cl      91.7 to 91.8 °C
6  CCOC(=O)CCNC(=O)c1ccc2c(CC)nn(C3CCCC3)c2c1          74 to 76 °C

For the 2 compounds below, give their melting point values.
1. COc1cccc(C(C)c2ccc(-c3cnn4c(O)ncnc34)cc2)c1 (configuration not stated)
2. CNS(=O)(=O)Oc1ccc2c(c1)C(C)(C)C(N1CCOCC1)O2 (configuration not stated)

282 to 285 °C
129 to 131 °C

----------
metric.name: melting point

I have 6 compounds here; please give me melting point for each one.
1. O=C(NCCOc1ccc(CC(Oc2ccccc2)C(=O)O)cc1Cl)c1ccc(-c2ccccn2)cc1 (centres undefined)
2. CSC(=O)c1c(C(F)F)nc(C(F)(F)F)c(C(=O)SC)c1NC1CC1
3. Cn1cc(-c2ccccc2)c(=S)c(-c2cccc(Br)c2)c1
4. CCCCOc1cc(/C=C(\OCC)C(=O)O)ccc1OCCc1ccc(N(C)S(=O)(=O)CCCC)cc1
5. CCCCc1nn2c(c1Cc1ccc(-c3ccccc3C(=O)O)cc1)CCCC2
6. BrCc1ccc2c(-c3ccccc3)onc2c1

1: 59 to 61 °C; 2: 85 to 86 °C; 3: 185 to 188 °C; 4: 144 °C; 5: 162 °C; 6: 127 to 128 °C

I need melting point for every entry listed below, if you could help.
1. CC(C)(C)OC(=O)Nc1ccc(-c2ccc(F)cc2F)cc1NC(=O)CC(=O)c1ccnc(C#N)c1
2. CCC(C)NC(=O)Nc1ccccc1C(=O)OC (centres undefined)
3. O=C(O)c1cc(Br)ccc1Sc1ccccc1

["160 to 161 °C", "124 °C", "171 to 173 °C"]

----------
Assignment: determine reported melting point for the given molecules.

> print(dat)
                                   molecule  experimental.result
1  CC#CC(=O)Nc1ccc(-n2nc(C(F)(F)F)cc2C(F)(F)F)cc1        220 to 221 °C
2        c1ccc(-c2nnsc2-c2ccc3c(c2)OCO3)cc1        107 to 109 °C
3  COc1ccc(C(=O)NCc2ccc(C(=O)O)cc2)cc1C12CC3CC(CC(C3)C1)C2        286 to 287 °C
4  Cc1nn(-c2ccc(C#N)c(Cl)c2)c(C)c1Oc1ccc(NC(=O)C(C)(C)C)cn1        191 to 192 °C
5                 CCC(CC)(CO)CCCCS(N)(=O)=O          64 to 65 °C

Return reported melting point values for all items listed beneath this line.
1. CNC(=O)C1=C(C(=O)Nc2cc(OC3CCCC3)c(Cl)cc2F)CCCC1
2. CCN(C(=O)N1CCN(c2cc(OC)cc(OC)c2)CC1)c1cc2ccccc2nc1OC
3. COC(=O)Cn1c(C(=O)Nc2nc(-c3cc(OC)c(C)cc3OC)c(CCC3CCCCC3)s2)cc2cc(OC)ccc21
4. N#CCc1cc(Cl)cc(Cl)c1Cl
5. CCOC(=O)c1ccc(NC(C)=O)c(CN(CC)CC)c1

1: 179 to 180 °C; 2: 118 to 120 °C; 3: 173 to 175 °C; 4: 60 to 62 °C; 5: 57 to 59 °C

Report melting point for each item below.
1. COc1cc(OC)c2c(=O)[nH]c(-c3ccc(OCCNC(C)C)c(-c4cccc(S(C)(=O)=O)c4)n3)nc2c1
2. O=C(O)COCc1ccccc1
3. Cc1cccc2c1CCc1ccccc1C2(O)CCCN=Cc1ccccc1 (stereo not drawn)

222 to 223 °C
81 to 83 °C
130 to 131 °C

----------
For each entry below, report its melting point value.

> print(dat)
                    structure.smiles.string    metric.name  experimental.result
1  CCCN(CCC)c1nc2c(c(-c3c(C)cc(C)cc3C)cn2C)c(=O)n1C  melting point        100 to 102 °C
2                      COC(=O)c1cc(Cl)cnc1N  melting point        139 to 140 °C

Working through the 3 compounds below one at a time, give melting point for each.
1. Cn1nc(-c2cc(CBr)c(Cl)cc2F)c(Cl)c1C(F)(F)F
2. N#CC(=Cc1cc(O)c(O)c(Br)c1)C(=O)Nc1cccc(Cl)c1
3. Nc1c(N=O)c(=O)n(CC2CCC2)c(=O)n1CC1CCC1

["112 to 114 °C", "266 to 270 °C", "251 to 252 °C"]

----------
I'd be grateful if you could share measured melting point for these entries.

Examples with answers:
> print(dat)
                                   molecule  experimental.result
1  Nc1nc2[nH]c(CCC#Cc3cscc3C(=O)N[C@@H](CCC(=O)O)C(=O)O)cc2c(=O)[nH]1        181 to 182 °C
2                 O=C1OCCN1c1ccc2cc[nH]c2c1               199 °C

Please state, for each entry, its recorded melting point.
1. Cn1cc(C2=C(c3cn(CCC(N)=O)c4ccccc34)C(=O)NC2=O)c2ccccc21
2. COc1cc(OC)c2c(=O)[nH]c(-c3ccc4[nH]c(CO)cc4c3)nc2c1
3. COc1ccccc1Cc1ccc(Cl)nn1
4. CC(=O)SCC(C)C(=O)N(C1Cc2ccccc2C1)[C@@H](C)C(=O)O (stereo partly specified)

1. 243 to 247 °C
2. 264 to 265 °C
3. 63 °C
4. 140 to 142 °C

----------
Kindly state melting point for each of the entries shown.

Give melting point for all molecules that follow.
1. O=C(O)c1cn(CC2CCCCC2)c2cc(Cl)ccc12
2. Cc1cccc(NC(c2ccccc2O)c2ccc3cccnc3c2O)n1 (stereo not drawn)
3. COc1ccccc1CN[C@H]1CCCN(CCCCCCCc2ccccc2)[C@H]1c1ccccc1 (relative stereo)
4. CCN(CC)CCc1cccc(N2C(=O)N(c3ccc(Cl)cc3Cl)Cc3cnc(Nc4ccccc4)nc32)c1
5. CN1CC(=O)NC(=O)N1c1cc(Cl)c(Oc2ccc(S(C)(=O)=O)cc2)c(Cl)c1

170 to 172 °C
189 to 191 °C
67 to 77 °C
186 °C
223 °C

----------
metric.name: melting point

// below: answered compounds
> print(dat)
                                   compound  experimental.result
1  CC(=O)N1C(=CC(C#N)=C2OC(CO)CN2C)C(=O)c2ccccc21 (stereo not given)        218 to 220 °C
2                   Nc1cc(Br)nc(C(=O)O)c1Cl        182 to 183 °C
3  CC1(C(O)=Nc2cc(Cl)cc(Cl)c2)CCC1C(=O)O (stereo not given)        110 to 111 °C
4  COc1cccc([C@H]2O[C@H](CC(=O)Nc3cc(CCC(=O)O)ccc3F)C(=O)N(CC(C)(C)CO)c3ccc(Cl)cc32)c1OC        151 to 152 °C
5  CCCCCCCCC1COC(c2ccc(O)cc2)OC1 (stereo not given)          96 to 97 °C

For each entry beneath this line, provide reported melting point.
1. Cc1cc(C)c(CC(=O)O)c(C#N)c1
2. COc1ccc(C(=O)c2c(C)oc3ccc([N+](=O)[O-])cc23)cc1
3. CCCn1c(=O)c2[nH]c(/C=C/c3ccccc3Cl)nc2n(CCC)c1=O
4. COC(=O)c1cnnn1C1OC(COC(=O)c2ccccc2)C(OC(=O)c2ccccc2)C1OC(=O)c1ccccc1 (stereo not given)
5. CCOC(=O)c1c2n(c3cc(N4CCN(C)CC4)c(F)cc3c1=O)CCCC2
6. CSc1ccc(-c2nn(Cc3ccccc3)c(=O)cc2-c2ccccc2)cc1
7. Cc1c(C)c2c(c(C)c1C=O)OC(C)(C)C2
8. COc1cc(OC)c(C(=O)CCCCCl)c(OC)c1

1: 155 to 157 °C; 2: 167 °C; 3: 269 to 270 °C; 4: 86 to 88 °C; 5: 163 to 165 °C; 6: 157 to 158 °C; 7: 93 °C; 8: 53 to 55 °C
